Each recorded value in this set is attributed to ChEMBL document CHEMBL5365511.

Measured pIC50, listed per entry for reference.
molecular target: Transcriptional enhancer factor TEF-3 (Homo sapiens)
Sequence (Q15561 whole entry): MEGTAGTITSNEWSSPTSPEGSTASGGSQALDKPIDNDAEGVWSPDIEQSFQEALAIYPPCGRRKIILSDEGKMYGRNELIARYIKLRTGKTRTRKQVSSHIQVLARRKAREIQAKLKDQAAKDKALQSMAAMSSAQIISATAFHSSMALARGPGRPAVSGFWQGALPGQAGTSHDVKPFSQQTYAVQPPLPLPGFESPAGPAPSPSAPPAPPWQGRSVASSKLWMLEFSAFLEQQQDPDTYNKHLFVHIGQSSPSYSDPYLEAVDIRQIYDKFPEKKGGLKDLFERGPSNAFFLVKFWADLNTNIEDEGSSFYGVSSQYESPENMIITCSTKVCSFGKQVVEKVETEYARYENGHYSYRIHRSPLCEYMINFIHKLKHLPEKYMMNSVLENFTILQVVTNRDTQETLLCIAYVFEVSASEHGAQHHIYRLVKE
The read-out pIC50 is expressed as -log10 of concentration in moles per litre.

Cn1cnc2c(-c3ccc(OC(F)(F)F)cc3)nc(C3CN(C(=O)C4=CCC4)C3)nc21
8.70

Query: Enter measured pIC50, system Transcriptional enhancer factor TEF-3 (Homo sapiens), for the compound shown: C=CC(=O)NCc1cc(-c2ccc(OC(F)(F)F)cc2)c2ncn(C)c2c1C#CCO
Reply: 8.52
